- Target under test: PKM2 (Homo sapiens, UniProt P14618)
- Sequence (P14618 whole entry): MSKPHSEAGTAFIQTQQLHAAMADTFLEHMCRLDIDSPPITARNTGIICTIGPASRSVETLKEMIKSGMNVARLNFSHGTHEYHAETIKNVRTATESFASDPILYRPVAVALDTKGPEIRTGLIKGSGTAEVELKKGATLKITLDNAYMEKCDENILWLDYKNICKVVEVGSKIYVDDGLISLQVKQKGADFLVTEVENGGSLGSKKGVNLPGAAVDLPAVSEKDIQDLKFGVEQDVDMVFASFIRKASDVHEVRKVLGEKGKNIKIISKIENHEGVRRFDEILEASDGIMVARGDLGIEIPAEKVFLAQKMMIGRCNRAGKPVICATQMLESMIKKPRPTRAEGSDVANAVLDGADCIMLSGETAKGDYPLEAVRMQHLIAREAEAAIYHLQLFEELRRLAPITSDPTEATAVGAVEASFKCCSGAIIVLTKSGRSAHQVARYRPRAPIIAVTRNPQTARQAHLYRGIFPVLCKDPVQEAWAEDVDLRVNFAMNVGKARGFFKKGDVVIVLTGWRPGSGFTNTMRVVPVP
- Assay summary: PKM2 Assay (activation, LDH-coupled, absorbance at 340 nm)
- Type: biochemical
- Test conditions: Table 4
Property label: AC50

Record excerpt, results attached:
Compound	AC50
COc1cccc(CN2CCN(C(=O)c3ccc(NS(=O)(=O)c4cccc5cccnc45)cc3)[C@H](C)C2)c1OC [Compound 130]	< 100 nM
CC1CN(Cc2c(F)cc(F)cc2F)CC(C)N1C(=O)c1ccc(NS(=O)(=O)c2cccc3cccnc23)cc1 (centres unmarked) [Compound 202]	100 to 500 nM
C[C@H]1CN(CC2CC2)CCN1C(=O)c1ccc(NS(=O)(=O)c2cccc3cccnc23)cc1Cl [Compound 178]	100 to 500 nM
CC(c1ccccc1F)N1CCN(C(=O)c2ccc(NS(=O)(=O)c3cccc4cccnc34)cc2)[C@H](C)C1 (some centres unmarked) [Compound 183]	< 100 nM
CC(c1c(F)ccc(F)c1F)N1CCN(C(=O)c2ccc(NS(=O)(=O)c3cccc4cccnc34)cc2)[C@H](C)C1 (some centres unmarked) [Compound 190]	< 100 nM

response.value for CC(c1ccc(F)cc1)N1CCN(C(=O)c2ccc(NS(=O)(=O)c3cccc4cccnc34)cc2)[C@@H](C)C1 (some centres unmarked) [Compound 171] (field: AC50) = 100 to 500 nM

C[C@H]1CN(Cc2cc(F)c(F)cc2F)CCN1C(=O)c1ccc(NS(=O)(=O)c2cccc3cccnc23)cc1 [Compound 145] yielded AC50 of < 100 nM

Entry CC(c1ccc(F)cc1)N1CCN(C(=O)c2ccc(NS(=O)(=O)c3cccc4cccnc34)cc2)[C@H](C)C1 (some centres unmarked) [Compound 133] — recorded AC50 = < 100 nM

response.value for O=C(c1ccc(NS(=O)(=O)c2cccc3cccnc23)cc1)N1CC2CCC(C1)N2Cc1ccc(F)cc1 [Compound 219] (field: AC50) = 100 to 500 nM

CC[C@H]1CN(C(C)c2cc(F)c(F)c(F)c2)CCN1C(=O)c1ccc(NS(=O)(=O)c2cccc3cccnc23)cc1 (some centres unmarked) [Compound 162] yielded AC50 of 100 to 500 nM

Value of measured AC50 for the entry C[C@H]1CN(Cc2c(F)cc(F)cc2F)CCN1C(=O)c1ccc(NS(=O)(=O)c2cccc3cccnc23)cc1 [Compound 164] : 100 to 500 nM

Memo: CC1CN(CC2CCOC2)CC(C)N1C(=O)c1ccc(NS(=O)(=O)c2cccc3cccnc23)cc1 (centres unmarked) [Compound 204] , reported AC50: 500 to 1000 nM

For this compound ( CCOC(=O)N1CCN(C(=O)c2ccc(NS(=O)(=O)c3cccc4cccnc34)cc2)[C@H](C)C1 [Compound 109] ), measured AC50 is 100 to 500 nM

Record summary for C[C@@H]1CN(CC2CCCC2)CCN1C(=O)c1ccc(NS(=O)(=O)c2cccc3cccnc23)cc1 [Compound 114] : reported AC50 = < 100 nM

* * *

- Target under test: PKM2 (Homo sapiens)
- Assay summary: PKM2 Assay (activation, LDH-coupled, absorbance at 340 nm)
- Type: biochemical
- Test conditions: Table 5
# key: entry, value: AC50

Below: 3 compounds and their reported AC50.
Compound	Target under test	AC50
COc1ccc(CN2CCN(C(=O)c3ccc(NS(=O)(=O)c4cccc5cccnc45)c(OC(F)(F)F)c3)CC2)c(OC)c1	PKM2 (Homo sapiens)	500 to 1000 nM
O=C(c1ccc(NS(=O)(=O)c2cccc3cccnc23)c(OC(F)(F)F)c1)N1CCN(Cc2cncc(F)c2)CC1	PKM2 (Homo sapiens)	100 to 500 nM
CC(C)(C(=O)N1CCN(C(=O)c2ccc(NS(=O)(=O)c3cccc4cccnc34)c(OC(F)(F)F)c2)CC1)c1ccccc1	PKM2 (Homo sapiens)	100 to 500 nM

# AC50 of O=C(c1ccc(NS(=O)(=O)c2cccc3cccnc23)cc1)N1CCN(Cc2cn[nH]c2)CC1 = < 100 nM

Entry under test: O=C(c1ccc(NS(=O)(=O)c2cccc3cccnc23)c(OC(F)(F)F)c1)N1CCN(Cc2cccc(Cl)c2Cl)CC1 . Its AC50 was 500 to 1000 nM

// AC50 value for COc1cc(C(=O)N2CCN(C3(c4ccc(F)cc4)CC3)CC2)ccc1NS(=O)(=O)c1cccc2cccnc12 : < 100 nM

* * *

- Target under test: PKM2 (Homo sapiens, UniProt P14618)
- Assay summary: PKM2 Assay (activation, LDH-coupled, absorbance at 340 nm)
- Assay type: biochemical
- Test conditions: Table 5
Examples of compounds with documented AC50 follow.

Compound	AC50
O=C(OC1CCOCC1)N1CCN(C(=O)c2ccc(NS(=O)(=O)c3cccc4cccnc34)c(OC(F)(F)F)c2)CC1	1000 to 20000 nM
O=C(c1ccc(NS(=O)(=O)c2cccc3cccnc23)c(C(F)(F)F)c1)N1CCN(Cc2ccncc2)CC1	1000 to 20000 nM
O=C(c1ccc(NS(=O)(=O)c2cccc3cccnc23)cc1Cl)N1CCN(Cc2cc(F)cc(F)c2)CC1	< 100 nM
CC(c1c(F)cc(F)cc1F)N1CCN(C(=O)c2ccc(NS(=O)(=O)c3cccc4cccnc34)cc2)CC1 (stereo not drawn)	< 100 nM
O=C(c1ccc(NS(=O)(=O)c2cccc3cccnc23)cc1)N1CCN(C(c2ccccc2)C(F)(F)F)CC1 (stereo not drawn)	< 100 nM

response.value for O=C(c1ccc(NS(=O)(=O)c2cccc3cccnc23)cc1Cl)N1CCN(Cc2ccc(F)cc2)CC1 (field: AC50) = < 100 nM

response.value for CC(c1cc(F)c(F)cc1F)N1CCN(C(=O)c2ccc(NS(=O)(=O)c3cccc4cccnc34)cc2)CC1 (stereo not drawn) (field: AC50) = < 100 nM

The reported AC50 of the compound O=C(c1ccc(NS(=O)(=O)c2cccc3cccnc23)cc1)N1CCN(Cc2c[nH]cn2)CC1 was 100 to 500 nM

Noted for O=C(c1ccc(NS(=O)(=O)c2cccc3cccnc23)cn1)N1CCN(Cc2cc(F)cc(F)c2)CC1 : its AC50 reads 100 to 500 nM

Short answer for CC(c1cc(F)cc(F)c1F)N1CCN(C(=O)c2ccc(NS(=O)(=O)c3cccc4cccnc34)cc2)CC1 (stereo not drawn) : AC50 was < 100 nM

* * *

- Target under test: PKM2 (Homo sapiens)
- Assay summary: PKM2 Assay (activation, LDH-coupled, absorbance at 340 nm)
- Format: biochemical
- Test conditions: Table 5
We begin with a simple list: items and their reported AC50.

Worked cases, AC50 given:
Chem smiles	AC50
O=C(c1ccc(NS(=O)(=O)c2cccc3cccnc23)cc1)N1CCN(C(=O)c2ccncc2F)CC1	< 100 nM
CC(C)(C(=O)N1CCN(C(=O)c2ccc(NS(=O)(=O)c3cccc4cccnc34)c(OC(F)(F)F)c2)CC1)c1ccc(F)cc1	100 to 500 nM

Memo: O=C(c1ccc(NS(=O)(=O)c2cccc3cccnc23)cn1)N1CCN(Cc2ccc(F)cc2)CC1 , reported AC50: 100 to 500 nM

AC50 reported for this compound O=C(c1ccc(NS(=O)(=O)c2cccc3cccnc23)c(OC(F)(F)F)c1)N1CCN(Cc2ccc(F)c(F)c2)CC1 : 100 to 500 nM

* * *

- Target under test: PKM2 (Homo sapiens)
- Assay summary: PKM2 Assay (activation, LDH-coupled, absorbance at 340 nm)
- Assay type: biochemical
- Test conditions: Table 5
Parameter AC50: see the listing below.

Compound	Target under test	Result
O=C(c1ccc(NS(=O)(=O)c2cccc3cccnc23)cc1Cl)N1CCN(Cc2cc(F)c(F)cc2F)CC1 [Compound 433]	PKM2 (Homo sapiens)	< 100 nM
O=C(c1ccc(NS(=O)(=O)c2cccc3cccnc23)cc1)N1CCN(C(=O)c2nccs2)CC1 [Compound 371]	PKM2 (Homo sapiens)	< 100 nM
O=C(c1ccc(NS(=O)(=O)c2cccc3cccnc23)cc1)N1CCN(CC2CCC2)CC1 [Compound 419]	PKM2 (Homo sapiens)	< 100 nM
O=C(c1ccc(NS(=O)(=O)c2cccc3cccnc23)cc1)N1CCN(C[C@@H]2CCOC2)CC1 [Compound 445]	PKM2 (Homo sapiens)	< 100 nM
O=C(c1ccc(NS(=O)(=O)c2cccc3cccnc23)cc1F)N1CCN(CC2CCCO2)CC1 (stereo not drawn) [Compound 437]	PKM2 (Homo sapiens)	< 100 nM
COc1cccc(OC)c1CN1CCN(C(=O)c2ccc(NS(=O)(=O)c3cccc4cccnc34)c(OC(F)(F)F)c2)CC1 [Compound 392]	PKM2 (Homo sapiens)	500 to 1000 nM
O=C(c1ccc(NS(=O)(=O)c2cccc3cccnc23)cc1F)N1CCN(Cc2ccc(Cl)c(F)c2)CC1 [Compound 422]	PKM2 (Homo sapiens)	100 to 500 nM
O=C(c1ccc(NS(=O)(=O)c2cccc3cccnc23)cn1)N1CCN(CC2CC2)CC1 [Compound 415]	PKM2 (Homo sapiens)	100 to 500 nM

Kindly consider the entry below.
response.value for CC(c1cccnc1)N1CCN(C(=O)c2ccc(NS(=O)(=O)c3cccc4cccnc34)cc2)CC1 (stereo not drawn) [Compound 370] (field: AC50) = < 100 nM
